Values from paper PMC10825075

System Under Test: Equ c 1.0102 (Equus caballus, UniProt A0A3Q2HX90)
Construct: mature protein, residues 16-187 (signal peptide removed), C-terminal His6 tag, codon-optimized synthetic cDNA in pET-21d(+), E. coli Rosetta-gami 2(DE3), purified by HisTrap
Sequence (A0A3Q2HX90 16-187): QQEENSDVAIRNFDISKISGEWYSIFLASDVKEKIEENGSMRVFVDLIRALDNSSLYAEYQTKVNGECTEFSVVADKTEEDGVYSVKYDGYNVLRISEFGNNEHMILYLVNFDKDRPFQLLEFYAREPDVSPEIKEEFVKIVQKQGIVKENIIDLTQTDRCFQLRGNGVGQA
Experiment Description: fluorescent probe binding (excitation […] nm, emission […] nm)
Metric: EC50 (µM)
# unit: µM | format: bare number

Challenge: Give Equ c 1.0102 (Equus caballus, UniProt A0A3Q2HX90) EC50 for c1ccc(Nc2cccc3ccccc23)cc1
Response given: 5
